Target: G-protein coupled receptor 35 (Homo sapiens)
Sequence (Q9HC97 whole entry): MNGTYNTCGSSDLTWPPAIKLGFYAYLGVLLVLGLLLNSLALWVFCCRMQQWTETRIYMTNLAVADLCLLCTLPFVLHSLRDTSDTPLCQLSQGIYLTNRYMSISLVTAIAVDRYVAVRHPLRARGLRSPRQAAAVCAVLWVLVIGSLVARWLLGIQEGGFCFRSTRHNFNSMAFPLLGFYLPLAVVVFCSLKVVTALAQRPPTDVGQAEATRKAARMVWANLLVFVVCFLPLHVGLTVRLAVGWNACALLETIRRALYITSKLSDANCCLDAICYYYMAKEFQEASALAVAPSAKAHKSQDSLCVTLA
Assay: Agonist activity at human GPR35 expressed in CHO cells assessed as induction of beta-arrestin recruitment at 10 uM after 90 mins by beta-galactosidase reporter gene assay relative to zaprinast
Type: cell-based
Measurement name: Emax (%)
# unit: % | format: bare number

May I ask what Emax has been recorded for `COc1ccc(C(=O)Nc2cccc3c(=O)cc(C(=O)O)oc23)cc1` ?
104

Given the compound `O=C(Nc1cccc2c(=O)cc(C(=O)O)oc12)c1ccccc1` , what is its reported Emax?
107

Item `O=C(O)c1cc(=O)c2cccc(NC(=O)C3CCCCC3)c2o1` has what recorded Emax?
118

May I ask what Emax has been recorded for `COc1ccc(C(=O)Nc2cc(Br)cc3c(=O)cc(C(=O)O)oc23)cn1` ?
117

Need Emax, item `O=C(O)c1cc(=O)c2cc(Br)cc(NC(=O)c3ccc(Cl)cc3Cl)c2o1`
110

If you can, please state the reported Emax value of `O=C(O)c1cc(=O)c2cccc([N+](=O)[O-])c2o1` .
101

Need Emax, item `CCOc1ccc(C(=O)Nc2cc(Br)cc3c(=O)cc(C(=O)O)oc23)cc1`
99

Would you kindly share the measured Emax for `O=C(O)c1cc(=O)c2cc(F)cc(NC(=O)c3cccc(Cl)c3Cl)c2o1` ?
106

// Emax lookup, key: `O=C(Nc1cccc2c(=O)cc(C(=O)O)oc12)c1ccc(Br)cc1`
122

What value of Emax has been recorded for this entry: `O=C(Nc1cc(Br)cc2c(=O)cc(C(=O)O)oc12)c1ccc2c(c1)OCO2`
107

====

Kindly state inhibition for each of the entries shown.
Target: G-protein coupled receptor 55 (Homo sapiens)
Sequence (Q9Y2T6 whole entry): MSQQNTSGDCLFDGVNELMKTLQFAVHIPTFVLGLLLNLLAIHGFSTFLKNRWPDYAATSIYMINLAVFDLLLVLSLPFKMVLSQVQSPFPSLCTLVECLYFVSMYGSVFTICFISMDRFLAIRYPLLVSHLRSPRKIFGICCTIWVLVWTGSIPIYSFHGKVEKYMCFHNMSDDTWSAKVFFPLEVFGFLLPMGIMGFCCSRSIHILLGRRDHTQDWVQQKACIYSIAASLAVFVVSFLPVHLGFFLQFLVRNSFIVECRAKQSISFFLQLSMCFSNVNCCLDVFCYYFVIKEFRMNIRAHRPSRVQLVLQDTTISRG
Experiment: Antagonist activity at human GPR55 expressed in CHO cells assessed as inhibition of lysophosphotidylinositol-induced beta-arrestin recruitment at 10 uM preincubated for 30 mins followed by lysophosphotidylinositol induction by beta-galactosidase reporter gene assay relative to control
Format: functional, cell-based
Numeric only. Scale: %

What value of inhibition on G-protein coupled receptor 55 (Homo sapiens) does `COc1ccc(C(=O)Nc2cc(F)cc3c(=O)cc(C(=O)O)oc23)cc1` have?
34

Quick check: inhibition on G-protein coupled receptor 55 (Homo sapiens), item `O=C(O)c1cc(=O)c2cc(F)cc(NC(=O)c3ccc(Cl)cc3Cl)c2o1` ?
18

Field: inhibition (G-protein coupled receptor 55 (Homo sapiens)). Entry: `O=C(Nc1cccc2c(=O)cc(C(=O)O)oc12)c1ccccc1`
24

Return inhibition measured with G-protein coupled receptor 55 (Homo sapiens) given this compound: `O=C(O)c1cc(=O)c2cc(F)cc(NC(=O)c3cccc(Cl)c3Cl)c2o1`
40

Provide value of inhibition for this record tested with G-protein coupled receptor 55 (Homo sapiens): `O=C(Nc1cc(Br)cc2c(=O)cc(C(=O)O)oc12)c1ccc(Cl)cc1`
40

Report inhibition for `O=C(Nc1cccc2c(=O)cc(C(=O)O)oc12)c1ccc(Br)cc1` tested on G-protein coupled receptor 55 (Homo sapiens).
9

So what inhibition did `N#Cc1ccc(C(=O)Nc2cc(Br)cc3c(=O)cc(C(=O)O)oc23)cc1` get with G-protein coupled receptor 55 (Homo sapiens)?
38

Could you share what inhibition was measured for `O=C(Nc1cc(Cl)cc2c(=O)cc(C(=O)O)oc12)c1ccc([N+](=O)[O-])cc1` , tested on G-protein coupled receptor 55 (Homo sapiens)?
14

Query for G-protein coupled receptor 55 (Homo sapiens): what inhibition does the record show for `COc1ccccc1C(=O)Nc1cc(Br)cc2c(=O)cc(C(=O)O)oc12` ?
44

Find the measured inhibition: item `COc1ccc(C(=O)Nc2cc(Br)cc3c(=O)cc(C(=O)O)oc23)cc1OC` , target or system G-protein coupled receptor 55 (Homo sapiens).
45

====

Target: G protein-coupled receptor GPR35 (Rattus norvegicus)
Sequence (Q33BM1 whole entry): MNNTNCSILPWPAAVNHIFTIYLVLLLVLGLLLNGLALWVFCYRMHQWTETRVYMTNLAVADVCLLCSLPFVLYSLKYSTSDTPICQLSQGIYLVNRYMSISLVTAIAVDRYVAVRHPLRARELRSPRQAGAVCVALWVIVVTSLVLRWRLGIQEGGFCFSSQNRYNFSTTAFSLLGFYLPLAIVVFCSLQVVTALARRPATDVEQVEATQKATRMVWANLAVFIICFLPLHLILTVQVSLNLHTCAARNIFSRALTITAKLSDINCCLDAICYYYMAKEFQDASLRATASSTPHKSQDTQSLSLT
Test: Agonist activity at rat GPR35 expressed in CHO cells assessed as induction of beta-arrestin recruitment after 90 mins by beta-galactosidase reporter gene assay
Measurement name: pEC50
Conceptually, pEC50 converts a concentration in mol/L into minus its log10.

Give the reported pEC50 for `Cc1cccc(C(=O)Nc2cccc3c(=O)cc(C(=O)O)oc23)c1` (system: G protein-coupled receptor GPR35 (Rattus norvegicus)).
5.56

# returns recorded pEC50 (system: G protein-coupled receptor GPR35 (Rattus norvegicus)) for `COC(=O)CC(=O)Nc1cccc2c(=O)cc(C(=O)O)oc12`
5.18

Query pEC50 on G protein-coupled receptor GPR35 (Rattus norvegicus) for `COc1ccc(C(=O)Nc2cc(Br)cc3c(=O)cc(C(=O)O)oc23)cc1OC`
5.89

Value wanted: pEC50 (G protein-coupled receptor GPR35 (Rattus norvegicus)) of entry `COc1ccc(C(=O)Nc2cc(Br)cc3c(=O)cc(C(=O)O)oc23)c(Cl)c1`
5.38

Param readout= pEC50; system= G protein-coupled receptor GPR35 (Rattus norvegicus); entry= `O=C(O)c1cc(=O)c2cccc(NC(=O)C3CCCCC3)c2o1` ; returns value.
5.92

Missing value: pEC50, G protein-coupled receptor GPR35 (Rattus norvegicus), entry `Cc1cccc(C(=O)Nc2cc(Cl)cc3c(=O)cc(C(=O)O)oc23)c1` . Fill in?
5.68

What reported pEC50 corresponds to `N#Cc1ccc(C(=O)Nc2cc(Br)cc3c(=O)cc(C(=O)O)oc23)cc1` on G protein-coupled receptor GPR35 (Rattus norvegicus)?
5.65

Request body: readout pEC50, system G protein-coupled receptor GPR35 (Rattus norvegicus), query `COc1ccc(C(=O)Nc2cc(F)cc3c(=O)cc(C(=O)O)oc23)cc1` . Return the value.
5.75

Item `COc1ccc(C(=O)Nc2cc(Br)cc3c(=O)cc(C(=O)O)oc23)cc1` with G protein-coupled receptor GPR35 (Rattus norvegicus) - pEC50?
5.85

State its pEC50 on G protein-coupled receptor GPR35 (Rattus norvegicus): `O=C(Nc1cc(Br)cc2c(=O)cc(C(=O)O)oc12)c1ccc(Cl)c(Cl)c1`
5.49

Give recorded pEC50 with G protein-coupled receptor GPR35 (Rattus norvegicus) for the following compound: `COc1ccc(C(=O)Nc2cc(Br)cc3c(=O)cc(C(=O)O)oc23)nc1`
5.81

# returns recorded pEC50 (system: G protein-coupled receptor GPR35 (Rattus norvegicus)) for O=C(O)c1cc(=O)c2c(OCC(O)COc3cccc4oc(C(=O)O)cc(=O)c34)cccc2o1 [CROMOLYN SODIUM]
6.01

GET /values?readout=pEC50&system=G protein-coupled receptor GPR35 (Rattus norvegicus)&item= `O=C1N/C(=N/c2ccccc2F)S/C1=C\c1ccc(C(=O)O)cc1`
5.10

# get_value(readout= pEC50, system= G protein-coupled receptor GPR35 (Rattus norvegicus)) for `CCCOc1ccc(C(=O)Nc2cccc3c(=O)cc(C(=O)O)oc23)cc1`
5.44

Test system G protein-coupled receptor GPR35 (Rattus norvegicus); read-out pEC50; what value for `COc1ccccc1C(=O)Nc1cc(Br)cc2c(=O)cc(C(=O)O)oc12` ?
5.96

Fill in the recorded pEC50 for this compound, with G protein-coupled receptor GPR35 (Rattus norvegicus) as test system: `O=C(Nc1cc(F)cc2c(=O)cc(C(=O)O)oc12)c1ccc(Cl)c(Cl)c1`
5.58

Find the measured pEC50: item `O=C(Nc1cc(Cl)cc2c(=O)cc(C(=O)O)oc12)c1ccc([N+](=O)[O-])cc1` , target or system G protein-coupled receptor GPR35 (Rattus norvegicus).
5.50

Notebook entry, G protein-coupled receptor GPR35 (Rattus norvegicus) assay: pEC50 of O=C(O)c1cc(=O)c2ccccc2[nH]1 [TRANSTORINE] = ?
4.18

Test system G protein-coupled receptor GPR35 (Rattus norvegicus); read-out pEC50; what value for `CCCOc1ccccc1-c1nc2nn[nH]c2c(=O)[nH]1` ?
7.21

Find pEC50 (G protein-coupled receptor GPR35 (Rattus norvegicus)) for the entry `CCOc1ccc(C(=O)Nc2cc(Br)cc3c(=O)cc(C(=O)O)oc23)cc1`
5.87

Requested read-out pEC50, target or system G protein-coupled receptor GPR35 (Rattus norvegicus), entry `O=C(Nc1cc(Br)cc2c(=O)cc(C(=O)O)oc12)c1ccccc1`
5.56

Tell me reported pEC50 for `O=C(Nc1cc(Cl)cc2c(=O)cc(C(=O)O)oc12)c1ccccc1` , tested with G protein-coupled receptor GPR35 (Rattus norvegicus).
5.55

Under G protein-coupled receptor GPR35 (Rattus norvegicus): pEC50 value of `O=C(O)c1cc(=O)c2cc(F)cc(NC(=O)c3cccc(Cl)c3Cl)c2o1` ?
5.50

Item `O=C(Nc1cc(Br)cc2c(=O)cc(C(=O)O)oc12)c1ccc2c(c1)OCO2` with G protein-coupled receptor GPR35 (Rattus norvegicus) - pEC50?
5.69

Notebook entry, G protein-coupled receptor GPR35 (Rattus norvegicus) assay: pEC50 of `COc1ccc(C(=O)Nc2cccc3c(=O)cc(C(=O)O)oc23)cc1` = ?
5.67

Param readout = pEC50; param system = G protein-coupled receptor GPR35 (Rattus norvegicus); param query = `Cc1cccc(C(=O)Nc2cc(Br)cc3c(=O)cc(C(=O)O)oc23)c1` ; response: value
5.68

Requested read-out pEC50, target or system G protein-coupled receptor GPR35 (Rattus norvegicus), entry `COc1ccc(C(=O)Nc2cc(Cl)cc3c(=O)cc(C(=O)O)oc23)cc1`
5.74

For the record `COc1ccc(C(=O)Nc2cc(Br)cc3c(=O)cc(C(=O)O)oc23)cn1` , what value of pEC50 is listed for G protein-coupled receptor GPR35 (Rattus norvegicus)?
6.00
